- EXPERIMENTAL SYSTEM: aspartyl proteases, in particular, beta-secretase
- ASSAY INFO: Ki of the compounds listed in Tables 1 and 2 (no method described)
- Type: biochemical
- COND: Table 1, compounds of formula Ia, W is -(CH2)n-
pKi: −log10 of the molar value.
EXPERIMENTAL ENDPOINT: pKi

Consider the following illustrative entries.
                                   molecule                       experimental_system  experimental_endpoint  readout_value
0  O=C(N[C@@H](CCCCNS(=O)(=O)c1ccc2ccccc2c1)C(=O)O)OCC1c2ccccc2-c2ccccc21  aspartyl proteases, in particular, beta-secretase                    pKi           5.00
1  Cc1ccc(S(=O)(=O)N(CC(C)C)C(CCCCNC(=O)C2c3ccccc3-c3ccccc32)C(=O)O)cc1 (centres unmarked)  aspartyl proteases, in particular, beta-secretase                    pKi           6.98
2  O=C(NCCCC[C@H](NS(=O)(=O)c1ccc(Cl)cc1)C(=O)O)OCC1c2ccccc2-c2ccccc21  aspartyl proteases, in particular, beta-secretase                    pKi           5.62
3  O=C(N[C@@H](CCCCNS(=O)(=O)c1cccc(C(F)(F)F)c1)C(=O)O)OCC1c2ccccc2-c2ccccc21  aspartyl proteases, in particular, beta-secretase                    pKi           4.66
4  O=C(NCCC[C@H](NC(=O)OCC1c2ccccc2-c2ccccc21)C(=O)O)OCC1c2ccccc2-c2ccccc21  aspartyl proteases, in particular, beta-secretase                    pKi           5.89

[1] O=C(N[C@@H](CCNS(=O)(=O)c1ccc(Br)cc1)C(=O)O)OCC1c2ccccc2-c2ccccc21
[2] COc1ccc(S(=O)(=O)N[C@@H](CCCCNC(=O)OCC2c3ccccc3-c3ccccc32)C(=O)O)cc1
**Q:** Which of the two gives a bigger number for pKi: 1 or 2 ? API: response body contains the label of the selected item.
**A:** 2
